Entry source: the RNAGym collection of RNA variant scans (doi:10.7554/elife.80360)

B1: CPEB3 Ribozyme (parent)
chain: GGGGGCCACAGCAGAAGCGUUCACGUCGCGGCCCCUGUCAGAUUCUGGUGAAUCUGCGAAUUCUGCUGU

Variants of: B1
experiment: self-cleavage, relative activity (ratio to wild type); higher = more cleavage; co-transcriptional
property measured: self-cleavage

Look at this variant and give its reported self-cleavage. A60C U69C 0.627

Sample A8G G65A — what was its self-cleavage? 0.224

Can you share its self-cleavage? I mean this variant: A15C G48U 0.883

Requested field: self-cleavage. Item: G3C G47A 0.264

Reported self-cleavage, variant C6U C63G : ____ 0.808

Can you share its self-cleavage? I mean this variant: C24U U69G 0.909

Which value of self-cleavage has been reported for G4C A15C in the records? 0.145

Consider the variant shown here: G5U U20G What is its recorded self-cleavage? 0.0745

Query: self-cleavage; subject: G3A C35U 0.215

Query: self-cleavage; subject: U21A G28A 0.219

What self-cleavage value was documented for this variant, U21G C33U ? 0.575

State the recorded self-cleavage for this entry: A16C U26A 0.158

Can you look up the measured self-cleavage of G37C A59C for me? 0.183

Item U44C U53A has what recorded self-cleavage? 0.895

// self-cleavage lookup, key: G2U A8C 0.0912

Returns the measured self-cleavage for the input variant. Input: C18G C45G 0.113

Requested field: self-cleavage. Item: G25U U46A 0.105

Please give the measured self-cleavage for this variant: U55G U64A 0.371
